Where do the numbers come from? From ChEMBL document CHEMBL5331138.

assayed-target: Nitric oxide synthase, inducible (Homo sapiens, UniProt P35228)
Sequence (P35228 whole entry): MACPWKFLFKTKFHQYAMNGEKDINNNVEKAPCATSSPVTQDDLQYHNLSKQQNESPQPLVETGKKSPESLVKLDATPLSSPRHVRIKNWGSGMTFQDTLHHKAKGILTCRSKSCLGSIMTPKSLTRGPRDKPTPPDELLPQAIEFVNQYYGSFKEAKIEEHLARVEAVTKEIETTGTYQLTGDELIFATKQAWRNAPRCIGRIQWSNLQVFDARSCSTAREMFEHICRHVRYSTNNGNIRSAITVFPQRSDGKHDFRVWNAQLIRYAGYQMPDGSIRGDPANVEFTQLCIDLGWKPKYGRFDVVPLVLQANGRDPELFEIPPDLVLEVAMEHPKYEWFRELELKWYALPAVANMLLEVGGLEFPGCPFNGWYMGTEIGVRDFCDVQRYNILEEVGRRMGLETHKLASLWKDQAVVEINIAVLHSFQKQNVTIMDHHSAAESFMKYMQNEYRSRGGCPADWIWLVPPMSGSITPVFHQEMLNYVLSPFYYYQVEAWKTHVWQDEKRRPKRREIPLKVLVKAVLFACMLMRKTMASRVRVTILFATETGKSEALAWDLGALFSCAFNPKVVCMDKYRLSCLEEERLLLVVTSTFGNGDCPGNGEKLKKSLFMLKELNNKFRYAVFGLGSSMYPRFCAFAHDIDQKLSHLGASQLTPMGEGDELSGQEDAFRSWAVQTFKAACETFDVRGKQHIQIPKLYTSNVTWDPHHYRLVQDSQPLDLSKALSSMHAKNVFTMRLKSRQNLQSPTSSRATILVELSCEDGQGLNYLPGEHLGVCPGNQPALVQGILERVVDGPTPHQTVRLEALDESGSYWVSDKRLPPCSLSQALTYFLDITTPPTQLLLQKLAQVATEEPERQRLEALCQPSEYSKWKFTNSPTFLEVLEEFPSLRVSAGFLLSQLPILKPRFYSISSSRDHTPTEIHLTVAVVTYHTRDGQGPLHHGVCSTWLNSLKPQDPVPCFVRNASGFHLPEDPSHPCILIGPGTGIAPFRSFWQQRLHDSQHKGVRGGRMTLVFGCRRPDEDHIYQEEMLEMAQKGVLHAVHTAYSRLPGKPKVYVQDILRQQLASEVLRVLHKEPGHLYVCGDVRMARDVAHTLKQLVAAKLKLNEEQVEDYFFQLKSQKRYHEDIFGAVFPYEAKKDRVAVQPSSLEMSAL
Give pKi for every item shown.
Give bare numbers, as −log10 of the molar value.

>  <smiles-notation>
Cc1cc(N)nc(CCc2cc(CCN)cc(F)c2F)c1.Cl.Cl

>  <measured>
5.76

$$$$
>  <smiles-notation>
Cc1cc(N)nc(C#Cc2cc(CCN(C)C)cc(F)c2F)c1

>  <measured>
4.31

$$$$

Pending compound:
## Input Requested read-out: pKi. Entry: Cc1cc(N)nc(/C=C/c2cc(CCN(C)C)cc(F)c2F)c1
## Output 4.92

====

Quick record of Ki values for Nitric oxide synthase 1 (Homo sapiens, UniProt P29475).

Examples with their reported Ki follow.
>  <smiles-notation>
Cc1cc(N)nc(C#Cc2cc(CCN(C)C)cc(F)c2F)c1

>  <Ki>
328 nM

$$$$
>  <smiles-notation>
CN(C)CCc1cc(F)c(F)c(CCc2cccc(N)n2)c1

>  <Ki>
1640 nM

$$$$

With those in mind, consider the next molecule.
## Input What value of Ki has been recorded for this entry: Cc1cc(N)nc(/C=C/c2cc(CCN(C)C)cc(F)c2F)c1
## Output 48 nM
